System: PC3-M cells
Experiment: Cell invasion assay, compounds 21-48
Assay type: cell-based, human
Settings: 10 μM of compound

compound	target-under-test	anti-invasion efficacy
COc1ccc(-c2cc3c(OC)cc(OC)cc3oc2=O)cc1 [Compound 23]	PC3-M cells	loss of activity
O=c1oc2cc(O)cc(O)c2cc1-c1ccc(O)cc1 [Compound 25]	PC3-M cells	loss of activity
CC(=O)Oc1ccc(-c2cc3c(OC(C)=O)cc(OC(C)=O)cc3oc2=O)cc1 [Compound 24]	PC3-M cells	loss of activity

// provenance: patent US8742141B2
